# test_system: Methionine--tRNA ligase, mitochondrial (Homo sapiens)
# method_description: human mitochondrial MetRS inhibitors, late-stage follow-up, counter-screen for T. brucei MetRS inhibitor project, biochemical, radioactivity, [3H]methionine, two concentrations (AID 720620)
# condition: recombinant human mitochondrial MetRS, [3H]Met-tRNA charging, 60 min; inhibition; at 1 µM; stronger effect = higher value
Please note: Satisfied applies when inhibition is -10% or greater, and Not satisfied applies otherwise.

Task item: Hello, I need to know if "O=C(NCc1nc2ccccc2[nH]1)C1=C[C@H](c2ccccc2)C[C@H](OCc2ccc(CO)cc2)O1" has measured inhibition not below -10%. Thanks!
Reply: Satisfied

Task item: Hello, I need to know if CN1CC(=O)N2C(c3cccc([N+](=O)[O-])c3)c3[nH]c4ccccc4c3C[C@H]2C1=O (some centres undefined) has measured inhibition not below -10%. Thanks!
Reply: Not satisfied

Task item: Hello, I need to know if "Clc1ccc(-c2nnc(SCc3nc4ccccc4[nH]3)o2)c(Cl)c1" has measured inhibition not below -10%. Thanks!
Reply: Satisfied

Task item: Hello, I need to know if "O=C(NCCc1nc2ccccc2[nH]1)c1ccc(Cl)c([N+](=O)[O-])c1" has measured inhibition not below -10%. Thanks!
Reply: Satisfied

Task item: Hello, I need to know if "O=C(Cn1cc(C(=O)C(=O)N2CCOCC2)c2ccccc21)Nc1cccc(C(F)(F)F)c1" has measured inhibition not below -10%. Thanks!
Reply: Not satisfied

Task item: Hello, I need to know if "CC(C)(C)[C@@H]1C=C(C(=O)NCc2nc3ccccc3[nH]2)O[C@H](OCc2ccc(CO)cc2)C1" has measured inhibition not below -10%. Thanks!
Reply: Not satisfied

Task item: Hello, I need to know if "O=C(CC(=O)Nc1cccc(Cl)c1)NN=Cc1ccccc1" has measured inhibition not below -10%. Thanks!
Reply: Not satisfied

Task item: Hello, I need to know if "CN(Cc1cc(Cl)cc(Cl)c1)[C@H]1C[C@H]2c3[nH]c4ccccc4c3CCN2C(=O)[C@H]1CO" has measured inhibition not below -10%. Thanks!
Reply: Satisfied

***
Task item: Hello, I need to know if "O=C(NCc1nc2ccccc2[nH]1)C1=C[C@@H](c2ccc(Br)cc2)C[C@@H](OCc2ccc(CO)cc2)O1" has measured inhibition not below -10%. Thanks!
Reply: Not satisfied

Task item: Hello, I need to know if "O=C(NCc1nc2ccccc2[nH]1)C1=C[C@H](c2csc3ccccc23)C[C@H](OCCCCO)O1" has measured inhibition not below -10%. Thanks!
Reply: Satisfied

Task item: Hello, I need to know if "COc1cccc(NC(=O)CSc2nnc3c(n2)[nH]c2ccc(C)cc23)c1" has measured inhibition not below -10%. Thanks!
Reply: Satisfied

Task item: Hello, I need to know if "Cc1ccc(NC(=O)CN(C)C(=O)CCSc2ccc(F)cc2)cc1" has measured inhibition not below -10%. Thanks!
Reply: Not satisfied

Task item: Hello, I need to know if "COc1ccccc1-n1c(SCC(=O)Nc2ccc(Cl)cc2)nc(O)c(Cc2ccccc2)c1=O" has measured inhibition not below -10%. Thanks!
Reply: Not satisfied

Task item: Hello, I need to know if CCCCCCCCCC1NC(C(=O)O)Cc2c1[nH]c1ccccc21 (centres undefined) has measured inhibition not below -10%. Thanks!
Reply: Satisfied

Task item: Hello, I need to know if O=C1[C@@H]2Cc3c([nH]c4ccccc34)C(c3cccc([N+](=O)[O-])c3)N2C(=O)CN1CCCO (some centres undefined) has measured inhibition not below -10%. Thanks!
Reply: Not satisfied

Task item: Hello, I need to know if "CC(CC(=O)Nc1cccc(Br)c1)=NNC(=O)c1ccc(O)cc1O" has measured inhibition not below -10%. Thanks!
Reply: Not satisfied

Task item: Hello, I need to know if "O=C(N/C(=C\c1cccnc1)c1nc2ccccc2[nH]1)c1cccc(Br)c1" has measured inhibition not below -10%. Thanks!
Reply: Not satisfied

Task item: Hello, I need to know if "O=C(NCc1nc2ccccc2[nH]1)C1=C[C@@H](c2ccc3c(c2)OCO3)C[C@@H](OCCCCO)O1" has measured inhibition not below -10%. Thanks!
Reply: Satisfied

Task item: Hello, I need to know if "CC(=O)c1ccc(N2CCN(C(=O)CCCn3c(=O)[nH]c4ccc(Br)cc4c3=O)CC2)cc1" has measured inhibition not below -10%. Thanks!
Reply: Not satisfied

* * *

The reader will find reported inhibition values listed item by item below.
# test_system: Methionine--tRNA ligase, mitochondrial (Homo sapiens) (UniProt Q96GW9)
# Sequence (Q96GW9 whole entry, looked up): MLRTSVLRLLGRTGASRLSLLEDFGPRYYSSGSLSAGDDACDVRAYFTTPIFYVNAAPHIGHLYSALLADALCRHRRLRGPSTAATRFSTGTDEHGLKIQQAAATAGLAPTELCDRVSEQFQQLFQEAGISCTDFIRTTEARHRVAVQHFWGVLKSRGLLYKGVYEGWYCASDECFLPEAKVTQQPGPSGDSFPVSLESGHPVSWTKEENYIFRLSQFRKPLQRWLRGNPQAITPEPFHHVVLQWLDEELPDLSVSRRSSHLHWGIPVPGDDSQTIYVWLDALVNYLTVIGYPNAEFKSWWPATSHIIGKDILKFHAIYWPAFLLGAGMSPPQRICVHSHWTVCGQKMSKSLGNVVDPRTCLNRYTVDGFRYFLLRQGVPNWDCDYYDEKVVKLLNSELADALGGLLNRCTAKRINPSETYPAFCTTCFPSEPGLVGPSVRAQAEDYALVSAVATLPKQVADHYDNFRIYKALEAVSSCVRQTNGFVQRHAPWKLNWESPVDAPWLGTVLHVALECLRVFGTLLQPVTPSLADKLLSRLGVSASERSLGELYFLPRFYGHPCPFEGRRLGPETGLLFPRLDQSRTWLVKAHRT
# method_description: human mitochondrial MetRS inhibitors, late-stage follow-up, counter-screen for T. brucei MetRS inhibitor project, biochemical, radioactivity, [3H]methionine, two concentrations (AID 720620)
# condition: recombinant human mitochondrial MetRS, [3H]Met-tRNA charging, 60 min; inhibition; at 1 µM; stronger effect = higher value
Express the result in % but write the number alone.

Form: item "O=C(Cn1cnc2ccccc21)Nc1cccc([N+](=O)[O-])c1" ; test system Methionine--tRNA ligase, mitochondrial (Homo sapiens) (UniProt Q96GW9); inhibition: -15.4

Form: item "O=C(NCc1nc2ccccc2[nH]1)C1=C[C@H](c2ccc3c(c2)OCO3)C[C@H](OCCCCO)O1" ; test system Methionine--tRNA ligase, mitochondrial (Homo sapiens) (UniProt Q96GW9); inhibition: -10.7

Form: item "O=C(NCc1nc2ccccc2[nH]1)C1=C[C@@H](c2ccccc2)C[C@@H](OCc2ccc(CO)cc2)O1" ; test system Methionine--tRNA ligase, mitochondrial (Homo sapiens) (UniProt Q96GW9); inhibition: -16.8

Form: item "COc1ccc(CNC(=O)CSc2nnc3c(n2)[nH]c2ccc(F)cc23)cc1" ; test system Methionine--tRNA ligase, mitochondrial (Homo sapiens) (UniProt Q96GW9); inhibition: -29.7

***
Form: item "Clc1ccc(OCCSCc2nc3ccccc3[nH]2)cc1" ; test system Methionine--tRNA ligase, mitochondrial (Homo sapiens) (UniProt Q96GW9); inhibition: -20

Form: item "COc1ccccc1NS(=O)(=O)c1cccc(NC(=O)Nc2ccccc2)c1" ; test system Methionine--tRNA ligase, mitochondrial (Homo sapiens) (UniProt Q96GW9); inhibition: -9.69

Form: item "O=C(CC=NOCc1ccc([N+](=O)[O-])cc1)Nc1ccc(Cl)cc1" ; test system Methionine--tRNA ligase, mitochondrial (Homo sapiens) (UniProt Q96GW9); inhibition: -13

Form: item "O=C(CCC(=O)Nc1cccc([N+](=O)[O-])c1)NN=Cc1cccs1" ; test system Methionine--tRNA ligase, mitochondrial (Homo sapiens) (UniProt Q96GW9); inhibition: -28.9

Form: item "Brc1cnc2nc(SCc3nc4ccccc4[nH]3)[nH]c2c1" ; test system Methionine--tRNA ligase, mitochondrial (Homo sapiens) (UniProt Q96GW9); inhibition: -21.5

Form: item "Cc1[nH]c2ccc(Br)cc2c(=O)c1CN1CCCCCC1" ; test system Methionine--tRNA ligase, mitochondrial (Homo sapiens) (UniProt Q96GW9); inhibition: -31.2

* * *

# test_system: Methionine--tRNA ligase, mitochondrial (Homo sapiens)
# method_description: human mitochondrial MetRS inhibitors, late-stage follow-up, counter-screen for T. brucei MetRS inhibitor project, biochemical, radioactivity, [3H]methionine, two concentrations (AID 720620)
# condition: recombinant human mitochondrial MetRS, [3H]Met-tRNA charging, 60 min; at 10 µM; stronger effect = higher value
The reader will find reported inhibition values listed item by item below.
Express the result in % but write the number alone.

// below: answered molecules
Form: molecule = "O=C(NCc1nc2ccccc2[nH]1)C1=C[C@@H](C2CC2)C[C@@H](OCc2ccc(CO)cc2)O1" ; inhibition = 5.87

Form: molecule = "O=C(CC=NOCc1ccc([N+](=O)[O-])cc1)Nc1ccc(Br)cc1" ; inhibition = -6.71

Form: molecule = "O=C(NCc1nc2ccccc2[nH]1)C1=C[C@H](c2csc3ccccc23)C[C@H](OCCCCO)O1" ; inhibition = 2.21

Form: molecule = COc1ccc(OCC(O)CNC(=O)Nc2ccc(Cl)cc2)cc1 (stereo unspecified) ; inhibition = 0.31

Form: molecule = "O=C(CN1CCSC1=NCc1ccccc1)c1ccc(Cl)c(Cl)c1" ; inhibition = -25.5

# evaluate next
Form: molecule = O=C1[C@@H]2Cc3c([nH]c4ccccc34)C(c3cccc([N+](=O)[O-])c3)N2C(=O)CN1CCCO (stereo partly specified) ; inhibition = 4.46

* * *

# test_system: Methionine--tRNA ligase, mitochondrial (Homo sapiens)
# method_description: human mitochondrial MetRS inhibitors, late-stage follow-up, counter-screen for T. brucei MetRS inhibitor project, biochemical, radioactivity, [3H]methionine, two concentrations (AID 720620)
# condition: recombinant human mitochondrial MetRS, [3H]Met-tRNA charging, 60 min; at 10 µM; stronger effect = higher value
metric_name: inhibition (%)
Express the result in % but write the number alone.

Form: item "O=C(NCc1nc2ccccc2[nH]1)C1=C[C@H](C2CC2)C[C@H](OCc2ccc(CO)cc2)O1" ; test system Methionine--tRNA ligase, mitochondrial (Homo sapiens); inhibition: 12.6

Form: item "O=C(NCc1nc2ccccc2[nH]1)C1=C[C@H](c2ccc3c(c2)OCO3)C[C@H](OCCCCO)O1" ; test system Methionine--tRNA ligase, mitochondrial (Homo sapiens); inhibition: 10.2

Form: item CC(C)OCCCN1CC(=O)N2C(c3cccc([N+](=O)[O-])c3)c3[nH]c4ccccc4c3C[C@H]2C1=O (some centres undefined) ; test system Methionine--tRNA ligase, mitochondrial (Homo sapiens); inhibition: -3.65

Form: item "COc1ccc(CNC(=O)CSc2nnc3c(n2)[nH]c2ccc(F)cc23)cc1" ; test system Methionine--tRNA ligase, mitochondrial (Homo sapiens); inhibition: -12

Form: item "COc1cccc(NC(=O)CSc2nnc3c(n2)[nH]c2ccc(C)cc23)c1" ; test system Methionine--tRNA ligase, mitochondrial (Homo sapiens); inhibition: 40.4

Form: item "O=C(CC=NOCc1ccc([N+](=O)[O-])cc1)Nc1ccc(Cl)cc1" ; test system Methionine--tRNA ligase, mitochondrial (Homo sapiens); inhibition: 1.47

Form: item "Clc1ccc(OCCSCc2nc3ccccc3[nH]2)cc1" ; test system Methionine--tRNA ligase, mitochondrial (Homo sapiens); inhibition: -5.52

Form: item "Cc1ccc(NC(=O)CN(C)C(=O)CCSc2ccc(F)cc2)cc1" ; test system Methionine--tRNA ligase, mitochondrial (Homo sapiens); inhibition: -21.5

***
Form: item "CCO[C@H]1OC(C(=O)NCc2nc3ccccc3[nH]2)=C[C@@H](c2ccc(Br)cc2)[C@@H]1CCCO" ; test system Methionine--tRNA ligase, mitochondrial (Homo sapiens); inhibition: 11.7

Form: item "O=C(NNC(=O)c1ccc(-n2cncn2)c([N+](=O)[O-])c1)c1ccc(Cl)cc1" ; test system Methionine--tRNA ligase, mitochondrial (Homo sapiens); inhibition: -21.4

Form: item "O=C(CC(=O)Nc1cccc(Cl)c1)NN=Cc1ccccc1" ; test system Methionine--tRNA ligase, mitochondrial (Homo sapiens); inhibition: 9.82

Form: item "O=C(NCc1nc2ccccc2[nH]1)C1=C[C@@H](c2ccccc2)C[C@@H](OCc2ccc(CO)cc2)O1" ; test system Methionine--tRNA ligase, mitochondrial (Homo sapiens); inhibition: 15.8

Form: item "O=C(NNC(=O)c1cc(-c2ccc(Cl)c(Cl)c2)nc2ccccc12)Nc1ccccc1" ; test system Methionine--tRNA ligase, mitochondrial (Homo sapiens); inhibition: -11.2

Form: item "CN(Cc1cc(Cl)cc(Cl)c1)[C@H]1C[C@H]2c3[nH]c4ccccc4c3CCN2C(=O)[C@H]1CO" ; test system Methionine--tRNA ligase, mitochondrial (Homo sapiens); inhibition: 80.3

Form: item "CC(C)(C)[C@@H]1C=C(C(=O)NCc2nc3ccccc3[nH]2)O[C@H](OCc2ccc(CO)cc2)C1" ; test system Methionine--tRNA ligase, mitochondrial (Homo sapiens); inhibition: -5.44

Form: item "CCOC(=O)N1CCC(Nc2c(Nc3ccc(F)cc3)c(=O)c2=O)CC1" ; test system Methionine--tRNA ligase, mitochondrial (Homo sapiens); inhibition: -4.56

Form: item "Oc1c(Cl)cc(Cl)cc1CNc1nc2ccccc2[nH]1" ; test system Methionine--tRNA ligase, mitochondrial (Homo sapiens); inhibition: 31.4

Form: item "O=C(NCc1nc2ccccc2[nH]1)C1=C[C@H](c2ccc(Br)cc2)C[C@H](OCCCCO)O1" ; test system Methionine--tRNA ligase, mitochondrial (Homo sapiens); inhibition: -2.4

Form: item O=C1CC(N(CCc2ccccc2)C(=S)Nc2ccccc2)C(=O)N1c1ccc(Br)cc1 (centres undefined) ; test system Methionine--tRNA ligase, mitochondrial (Homo sapiens); inhibition: 25.6

Form: item "O=C(N/C(=C\c1cccnc1)c1nc2ccccc2[nH]1)c1cccc(Br)c1" ; test system Methionine--tRNA ligase, mitochondrial (Homo sapiens); inhibition: 4.89

Form: item "Cc1[nH]c2ccc(Br)cc2c(=O)c1CN1CCCCCC1" ; test system Methionine--tRNA ligase, mitochondrial (Homo sapiens); inhibition: -11
